System: NCI-H522 lung
Assay protocol: NCI-60 one-dose screen, 48 h (100 = growth as untreated, 0 = no growth, -100 = all killed)
Test parameters: 10 µM
This is part of a sample that, as a whole, favours compounds with a hit. Of some 83,000 tested, about 20% had one in any assay.

{"Molecule": "O=C(Nc1ccccc1)Nc1ncnc2c1ncn2-c1ccccc1", "Value unit": "%", "growth": 74.4}
{"Molecule": "O=C(Nc1ccc(NS(=O)(=O)c2ccc(F)cc2)cc1)C12CC3CC(CC(C3)C1)C2", "Value unit": "%", "growth": 86.4}
{"Molecule": "CCn1c(CSc2nc3ccccc3c(=O)n2CCc2ccccc2)n[nH]c1=S", "Value unit": "%", "growth": -5}
{"Molecule": "Oc1ccc(-c2[nH]c3ccccc3c2-c2nc3ccccc3o2)cc1", "Value unit": "%", "growth": 60.9}
{"Molecule": "Nc1nc(N)c(N)c(Nc2ccc(CCO)cc2)n1", "Value unit": "%", "growth": 91.9}
{"Molecule": "COc1cc(C)ccc1Oc1nc(Nc2ccc(N3CCOCC3)cc2)ncc1NC(=O)Nc1cc(C(F)(F)F)cc(C(F)(F)F)c1", "Value unit": "%", "growth": 73.2}
{"Molecule": "COc1ccc(-c2nnc(SCC(=O)Nc3ccc(C(=O)/C=C/c4ccccc4)cc3)n2-c2ccccc2)cc1OC", "Value unit": "%", "growth": 53.8}
{"Molecule": "NC(=O)c1cccc(-n2ccc3cc(NC(=O)Nc4ccc(Cl)c(C(F)(F)F)c4)ccc32)n1", "Value unit": "%", "growth": 64.7}
{"Molecule": "COc1ccc(C(=O)N/N=C/c2cc(C(F)(F)F)ccc2Cl)cc1", "Value unit": "%", "growth": 82.1}
{"Molecule": "COc1ccc2nc3cc(Cl)ccc3c(N)c2c1", "Value unit": "%", "growth": -75.8}
{"Molecule": "CC1OC2CC(=O)OC2C2=C1C(=O)c1c(O)c3c(c(O)c1C2=O)C1CC(O)C3(O)C(C)O1 (centres undefined)", "Value unit": "%", "growth": -66.4}
{"Molecule": "O=S(=O)(O)c1cccc(Nc2ccc3ccccc3c2)c1", "Value unit": "%", "growth": 87.9}
{"Molecule": "COc1ccc2nc3cc(Cl)ccc3c(NCCCNCCO)c2c1", "Value unit": "%", "growth": -86.5}
{"Molecule": "COc1ccc(/C=C2\\CCCC3=C2NC(N)=NC3c2ccc(OC)c(OC)c2)cc1OC (centres undefined)", "Value unit": "%", "growth": 16.7}
{"Molecule": "COc1ccc2c(c1)OC(N)=C(C#N)C2c1cc(OC)c(OC)c(OC)c1 (centres undefined)", "Value unit": "%", "growth": -27.9}
{"Molecule": "N#Cc1c(-c2ccc(Cl)cc2)csc1NC(=O)Nc1ccc(Cl)c(C(F)(F)F)c1", "Value unit": "%", "growth": -12.8}
{"Molecule": "COc1cc2cc(Oc3ccc(NC(=O)Nc4ccc(Cl)c(Cl)c4)cc3)c(C)nc2cc1OC", "Value unit": "%", "growth": -13.7}
{"Molecule": "COc1ccc(-c2cc(-c3ccc(Cl)cc3)nc(SCCCCCCC(=O)NO)n2)cc1OC", "Value unit": "%", "growth": 45.4}
{"Molecule": "Cc1c2cnccc2c(C)c2c1c1cc(O)ccc1n2C(C)C", "Value unit": "%", "growth": -9.59}
{"Molecule": "COc1ccc2nc(-c3ccc(Cl)cc3)cc(-c3nnc(SC/C(=N\\O)c4ccccc4)n3-c3ccccc3)c2c1", "Value unit": "%", "growth": 82.7}
{"Molecule": "COc1cc(C(=O)N2CCN(c3cc4c(cc3F)c(=O)c(C(=O)NO)cn4C3CC3)CC2)cc(OC)c1OC", "Value unit": "%", "growth": 87.4}
{"Molecule": "CCc1ccc(-c2ccc(-n3nc(C)c4c(N)nc(Cc5ccccc5)nc43)cc2)cc1", "Value unit": "%", "growth": 49.2}
{"Molecule": "CSc1nc2c(c(=O)n1C)CN(Cc1ccccc1)C(=O)CN2", "Value unit": "%", "growth": 79.6}
{"Molecule": "CNC(=O)c1cn2c3c(c(N4CCN(C)CC4)c(F)cc3c1=O)OC[C@@H]2C", "Value unit": "%", "growth": 90.4}
{"Molecule": "Cn1cnc([N+](=O)[O-])c1/C=C1\\Oc2ccc(Br)cc2C1=O", "Value unit": "%", "growth": 52.7}
{"Molecule": "COc1ccc(C(c2ccc(OCCN(C)C)cc2)c2cc3ccccc3c3ccccc23)cc1 (centres undefined)", "Value unit": "%", "growth": 75}
{"Molecule": "Cc1ccc(/C=C2/C(=O)N(C)c3ccc(S(=O)(=O)Nc4ccc(C(C)(C)C)cc4)cc32)s1", "Value unit": "%", "growth": 75.5}
{"Molecule": "CN1C(=O)C2(Nc3cc(Cl)ccc3S2)c2cc(Cl)ccc21 (centres undefined)", "Value unit": "%", "growth": 95.2}
{"Molecule": "O=C(O)COc1c(Cl)cc([N+](=O)[O-])cc1Cl", "Value unit": "%", "growth": 76.8}
{"Molecule": "Cc1noc(C)c1CSc1ccccc1C(=O)N1CCN(c2cccc(C(F)(F)F)c2)CC1", "Value unit": "%", "growth": 62}
{"Molecule": "CC(C)C[C@H](NC(=O)Cn1cccc(CNC(=O)c2ccccc2)c1=O)B(O)O", "Value unit": "%", "growth": -9.79}
{"Molecule": "CCn1c2ccc(O)cc2c2c(C)c3c[n+](C)ccc3c(C)c21", "Value unit": "%", "growth": -0.0478}
{"Molecule": "IC(I)I", "Value unit": "%", "growth": 119}
{"Molecule": "COc1cc(C2C(C#N)=C(N)Oc3cc(O)ccc32)cc(OC)c1OC (centres undefined)", "Value unit": "%", "growth": 1.54}
{"Molecule": "O=C(Nc1ccc(OCc2nnc(-c3ccc(Cl)cc3)o2)c(F)c1)Nc1ccc(Cl)c(C(F)(F)F)c1", "Value unit": "%", "growth": -33.8}
{"Molecule": "COc1cc(-c2nc3ccccc3o2)cc(CN2CCCCC2)c1O", "Value unit": "%", "growth": 65.9}
{"Molecule": "O=C(N/N=C/c1ccc([N+](=O)[O-])cc1)c1ccccc1Nc1cccc(C(F)(F)F)c1", "Value unit": "%", "growth": 88.8}
{"Molecule": "CC1CCCC(C(=O)O)C1C(=O)O (centres undefined)", "Value unit": "%", "growth": 80.8}
{"Molecule": "CCN(CC)CCN1c2nc3ccccc3cc2Sc2cc3ccccc3nc21", "Value unit": "%", "growth": -69.4}

---

Tested on: A498 renal
Assay protocol: NCI-60 one-dose screen, 48 h (100 = growth as untreated, 0 = no growth, -100 = all killed)
Test parameters: 10 µM
The panel holds about 83,000 compounds, 20% with a hit somewhere; the sample as a whole holds those more often.
Returns the class for an entry based on its growth. Class ranges: b0: < 20%; b1: ≥ 20% and < 90%; b2: ≥ 90%

{"Compound": "COc1cc(C(=O)/C=C/c2c[nH]c3ccccc23)cc(OC)c1OC", "Answer label": "b0"}
{"Compound": "COC(=O)C1(O)NC(=C(C#N)C#N)C(C#N)=C1C(=O)c1ccc(OC)c(OC)c1 (stereo unspecified)", "Answer label": "b2"}
{"Compound": "O=S(=O)(O)c1cccc(Nc2ccc3ccccc3c2)c1", "Answer label": "b2"}
{"Compound": "O=C(CCCSc1nc(-c2ccc(Cl)cc2)cc(-c2ccc(Cl)cc2)n1)NO", "Answer label": "b0"}
{"Compound": "CCOS(=O)(=O)c1c(C(C)C)cc(C(C)C)cc1C(C)C", "Answer label": "b2"}
{"Compound": "CCOC(=O)c1cc(C(=O)c2cc(OC)cc(OC)c2)n2ncc3ccccc3c12", "Answer label": "b0"}
{"Compound": "CCc1c2c(nc3ccc(OC(=O)N4CCC(N5CCCCC5)CC4)cc13)-c1cc3c(c(=O)n1C2)COC(=O)[C@]3(O)CC", "Answer label": "b0"}
{"Compound": "Cc1c2c(nn1C(=O)c1nn(-c3ccc(Cl)cc3)cc1O)-c1ccccc1CC2", "Answer label": "b1"}
{"Compound": "CCCCN(CCCC)C(=O)[C@H](CC)[C@@H]1CC[C@@H](C)[C@@H]([C@H](C)[C@@H](O)[C@@H](C)C(=O)[C@H](CC)C2O[C@]3(C=C[C@@H](O)[C@]4(CC[C@@](C)([C@H]5CC[C@](O)(CC)[C@H](C)O5)O4)O3)[C@H](C)C[C@@H]2C)O1 (stereo partly specified)", "Answer label": "b0"}
{"Compound": "COc1cc(/C=C/c2cc(/C=C/c3ccc(O)c(OC)c3)[nH]c(=O)n2)ccc1O", "Answer label": "b1"}
{"Compound": "CCOC(=O)c1cc(C(=O)c2ccc(OC)c(OC)c2)n2ccncc12", "Answer label": "b2"}
{"Compound": "COc1cc2nc(SCC(=O)Nc3cc(OC)c(OC)c(OC)c3)n(Cc3ccccc3)c(=O)c2cc1OC", "Answer label": "b0"}
{"Compound": "Cc1c[nH]c(=O)n(Cc2nnc(CCC(=O)c3nc4ccccc4[nH]3)o2)c1=O", "Answer label": "b0"}
{"Compound": "O=C(O)COc1c(Cl)cc([N+](=O)[O-])cc1Cl", "Answer label": "b2"}
{"Compound": "O=C1/C(=C/c2ccc3c(c2)OCO3)SC(=S)N1C1c2ccccc2Oc2ccccc21", "Answer label": "b2"}
{"Compound": "N#Cc1cnn(C(=O)c2nn(-c3ccc(Cl)cc3)cc2O)c1N", "Answer label": "b1"}
{"Compound": "COc1ccc(-c2n[nH]nc2-c2cc(OC)c3c(c2OC)OCO3)cc1", "Answer label": "b0"}
{"Compound": "CC(C)CCN(CCC(C)C)CC(=O)Nc1ccc(S(=O)(=O)c2ccc(NC(=O)CN(CCC(C)C)CCC(C)C)cc2)cc1", "Answer label": "b2"}
{"Compound": "CCN1CC(CCN2CCOCC2)C(C(c2ccccc2)c2ccccc2)C1=O (stereo unspecified)", "Answer label": "b1"}
{"Compound": "Nc1ccn(Cc2nnc(CCC(=O)c3nc4ccccc4[nH]3)o2)c(=O)n1", "Answer label": "b1"}
{"Compound": "CCc1cc(Cl)c(OC)c(C(=O)NCC2CCCN2CC)c1O (stereo unspecified)", "Answer label": "b1"}
{"Compound": "COc1cc2ncnc(NC3CCC(O)CC3)c2cc1OC (stereo unspecified)", "Answer label": "b2"}
{"Compound": "O=[N+]([O-])c1cc(Cl)cc(Cl)c1O", "Answer label": "b2"}
{"Compound": "Cc1ccc(NCCN(C)CC(C)O)c2c(=O)c3ccccc3sc12 (stereo unspecified)", "Answer label": "b1"}
{"Compound": "COc1cc(C)ccc1Oc1nc(Nc2ccc(N3CCOCC3)cc2)ncc1NC(=O)Nc1cc(C(F)(F)F)cc(C(F)(F)F)c1", "Answer label": "b1"}
{"Compound": "O=C(N/N=C/c1cc([N+](=O)[O-])ccc1O)c1cccc2ccccc12", "Answer label": "b1"}
{"Compound": "CN(C)c1ncnc2c1nnn2C1OC(CO)C(O)C1O (stereo unspecified)", "Answer label": "b1"}
{"Compound": "Cc1cc(C(C#N)c2ccc(Cl)cc2)c(Cl)cc1NC(=O)c1cc(I)cc(I)c1O (stereo unspecified)", "Answer label": "b0"}
{"Compound": "CN(C)c1ccc(/C=N/NC(=O)c2cccc3ccccc23)c(Cl)c1", "Answer label": "b0"}
{"Compound": "COc1cc(-c2nn(-c3cccc(NC(=O)CCNc4ccc(N5CCOCC5)cc4)c3)cc2-c2ccncc2)ccc1Cl", "Answer label": "b0"}
{"Compound": "C=CCNCCN1C(=O)c2ccc3c4c(ccc(c24)C1=O)C(=O)N(CCNCC=C)C3=O", "Answer label": "b0"}
{"Compound": "CC(=O)OC1C=CC(OC(C)=O)O1 (stereo unspecified)", "Answer label": "b1"}
{"Compound": "CC(=O)Nc1ccc(S(=O)(=O)N/N=C(\\C)c2ccc(C)cc2C)cc1", "Answer label": "b2"}
{"Compound": "CCOC(=O)Cn1c(=O)c2sc3ncccc3c2n2nnc(-c3ccccc3)c12", "Answer label": "b2"}
{"Compound": "O=C(CCl)Oc1ccc(OC(=O)CCl)cc1", "Answer label": "b2"}
